molecular target: PCSK9 (Homo sapiens, UniProt Q8NBP7); construct: biotin (biotinylated); purchased; assay: PCSK9 Alexa FRET Plus TR-FRET assay; format: binding; conditions: Ki calculated from IC50 and KD of AF cyclic peptide Reagent B; 0.5 nM PCSK9, 960 nM AF cyclic peptide; read-out: Alexa FRET Plus TR-FRET
Sequence (Q8NBP7 153-692): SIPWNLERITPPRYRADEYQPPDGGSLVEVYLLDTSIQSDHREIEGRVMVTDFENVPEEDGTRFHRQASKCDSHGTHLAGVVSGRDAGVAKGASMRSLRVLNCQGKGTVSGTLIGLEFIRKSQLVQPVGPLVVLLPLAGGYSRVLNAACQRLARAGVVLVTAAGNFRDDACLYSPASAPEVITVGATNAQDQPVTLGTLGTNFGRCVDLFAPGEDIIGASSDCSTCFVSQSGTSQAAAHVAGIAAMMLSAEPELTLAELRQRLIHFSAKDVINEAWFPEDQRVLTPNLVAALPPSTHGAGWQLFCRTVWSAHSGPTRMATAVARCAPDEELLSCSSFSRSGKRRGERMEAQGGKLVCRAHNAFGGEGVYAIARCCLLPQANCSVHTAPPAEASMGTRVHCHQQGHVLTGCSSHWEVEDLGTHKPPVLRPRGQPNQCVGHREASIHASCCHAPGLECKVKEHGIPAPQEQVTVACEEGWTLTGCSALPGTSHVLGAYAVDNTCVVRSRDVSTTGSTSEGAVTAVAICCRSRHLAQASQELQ
Listed compounds paired with reported pKi
Recall that pKi is obtained by taking minus log10 of the concentration measured in molar.

Worked cases, answers included:
>>> reading("COc1ccc(C[C@@H]2NC(=O)[C@H]([C@@H](C)O)NC(=O)[C@@H]3[C@@H]4CCN3C(=O)[C@@H]3Cc5cn(c6ccc(F)cc56)CCCCCCN(Cc5ccc(cc5)CCNC(=O)[C@]5(C)CCCN5C2=O)C(=O)CCC(=O)N[C@@H](C)C(=O)N[C@H](CNC(=O)COCCOCCOCCOCCNC(=O)CCCCC[N+](C)(C)CCNC(=O)COCCOCCNC(=O)COCCOCCNC(=O)CC[C@@H](NC(=O)CCCCCCCCCCCCCCCCC(=O)O)C(=O)O)C(=O)N[C@@H](Cc2cccc(c2)CNC(=O)CO4)C(=O)N3)cc1 [Ex-28]")
10.89
>>> reading("COC(=O)CCCCCCCCCCCCCCCCC(=O)N[C@@H](CCC(=O)NCCOCCOCC(=O)NCCOCCOCC(=O)NCC[N+](C)(C)CCCCCC(=O)NC[C@H]1NC(=O)[C@H](C)NC(=O)CCC(=O)N2CCCCCCn3cc(c4cc(F)ccc43)C[C@@H]3NC(=O)[C@H](Cc4cccc(c4)CNC(=O)CO[C@H]4CCN(C3=O)[C@@H]4C(=O)N[C@@H]([C@@H](C)O)C(=O)N[C@@H](Cc3ccc(OC)cc3)C(=O)N3CCC[C@@]3(C)C(=O)NCCc3ccc(cc3)C2)NC1=O)C(=O)OC [Ex-12]")
10.85

For the next question, use this compound.
Notebook: CCCCCCCCCCCCCCCC(=O)NCC[N+](C)(C)CCOCCOCCC(=O)NCCOCCOCC(=O)NCCOCCOCC(=O)NC[C@H]1NC(=O)[C@H](C)NC(=O)CCC(=O)N2CCCCCCn3cc(c4cc(F)ccc43)C[C@@H]3NC(=O)[C@H](Cc4cccc(c4)CNC(=O)CO[C@H]4CCN(C3=O)[C@@H]4C(=O)N[C@@H]([C@@H](C)O)C(=O)N[C@@H](Cc3ccc(OC)cc3)C(=O)N3CCC[C@@]3(C)C(=O)NCCc3ccc(cc3)C2)NC1=O [Ex-38] , pKi read as 10.89
